Source: patent US10508109B2

molecular target: SUV39H2 (Homo sapiens (Human)); details: read-out: IC50 (μM) Suv 39H2 assay; enzyme assay
Sequence (Q9H5I1 whole entry): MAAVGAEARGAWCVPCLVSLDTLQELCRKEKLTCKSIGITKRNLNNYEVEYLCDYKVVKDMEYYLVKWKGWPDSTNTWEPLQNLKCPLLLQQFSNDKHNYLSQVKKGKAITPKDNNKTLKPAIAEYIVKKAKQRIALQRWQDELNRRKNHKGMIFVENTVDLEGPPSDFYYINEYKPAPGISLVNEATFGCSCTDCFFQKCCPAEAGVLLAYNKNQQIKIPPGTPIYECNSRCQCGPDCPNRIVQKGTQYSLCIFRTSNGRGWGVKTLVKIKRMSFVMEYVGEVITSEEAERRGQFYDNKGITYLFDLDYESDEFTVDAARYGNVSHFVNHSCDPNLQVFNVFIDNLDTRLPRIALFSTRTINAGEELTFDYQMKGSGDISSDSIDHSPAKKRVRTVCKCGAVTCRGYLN
Where a name gives a salt, the structure may show the parent alone.
API: label(entry) gives Satisfied if the entry's IC50 is strictly smaller than 0.01 µM; on equality or larger values it gives Not satisfied.

Exercise: Could you please tell me whether IC50 recorded for `COc1cc(OCCCN(C)C)c(-c2cn3ccc(N4CCC(NS(=O)(=O)C5CC5)CC4)cc3n2)cc1Cl` is less than 0.01 µM?
Key: Not satisfied

Exercise: Could you please tell me whether IC50 recorded for COc1cc(OC)c(-c2cn3ccc(N4CCC(NC(C)=O)C4)nc3n2)cc1Br (centres unmarked) is less than 0.01 µM?
Key: Satisfied

Exercise: Could you please tell me whether IC50 recorded for COc1cc(OC)c(-c2cn3ccc(N4CCC(N)C4)cc3n2)cc1Cl (centres unmarked) is less than 0.01 µM?
Key: Satisfied

Exercise: Could you please tell me whether IC50 recorded for `COc1cc(OC)c(-c2cn3ccc(N4CC[C@H](NCc5ccc(F)cc5)C4)cc3n2)cc1Cl` is less than 0.01 µM?
Key: Not satisfied

Exercise: Could you please tell me whether IC50 recorded for `COc1cc(OCCCN(C)C)c(-c2cn3ccc(N4CCN(S(=O)(=O)C(C)C)CC4)cc3n2)cc1Cl` is less than 0.01 µM?
Key: Not satisfied

Exercise: Could you please tell me whether IC50 recorded for COc1ccc(-c2cn3ccc(N4CCCC4)cc3n2)cc1C#N [Example 21, hydrobromide] is less than 0.01 µM?
Key: Not satisfied

Exercise: Could you please tell me whether IC50 recorded for `COc1cc(OC)c(-c2cn3cc(NCCN)c(N4CCN(S(=O)(=O)C5CC5)CC4)nc3n2)cc1Cl` is less than 0.01 µM?
Key: Satisfied

Exercise: Could you please tell me whether IC50 recorded for COc1cc(OC)c(-c2cn3ccc(N4CCC(NC(=O)OC(C)(C)C)C4)nc3n2)cc1Cl (centres unmarked) is less than 0.01 µM?
Key: Not satisfied

Exercise: Could you please tell me whether IC50 recorded for `CCCCCNC1CCN(c2ccn3cc(-c4cc(Cl)c(OC)cc4OC)nc3c2)CC1` is less than 0.01 µM?
Key: Satisfied

Exercise: Could you please tell me whether IC50 recorded for `COc1cc(OC)c(-c2cn3ccc(N4CCN(CCC(N)=O)CC4)cc3n2)cc1Cl` is less than 0.01 µM?
Key: Satisfied

Exercise: Could you please tell me whether IC50 recorded for `COc1cc(OC)c(-c2cn3ccc(N4CCCC4)cc3n2)cc1Br` is less than 0.01 µM?
Key: Not satisfied

Exercise: Could you please tell me whether IC50 recorded for `COc1cc(OC)c(-c2cn3ccc(N4CCN(c5ccnc(N6CCOCC6)n5)CC4)cc3n2)cc1Cl` is less than 0.01 µM?
Key: Not satisfied

Exercise: Could you please tell me whether IC50 recorded for `CCOP(=O)(CCN1CCN(c2ccn3cc(-c4cc(Cl)c(OC)cc4OCCCN(C)C)nc3c2)CC1)OCC` is less than 0.01 µM?
Key: Not satisfied

Exercise: Could you please tell me whether IC50 recorded for `COc1cc(OC)c(-c2cn3ccc(N4CCC(NP(=O)(OC)OC)CC4)cc3n2)cc1Cl` is less than 0.01 µM?
Key: Satisfied

Exercise: Could you please tell me whether IC50 recorded for `COc1cc(OC)c(-c2cn3ccc(N4CCN(S(=O)(=O)C5CCCC5)CC4)nc3n2)cc1Cl` is less than 0.01 µM?
Key: Not satisfied

Exercise: Could you please tell me whether IC50 recorded for `COc1cc(OC)c(-c2cn3ccc(N4CCN(CCC(=O)NCCN(C)C)CC4)cc3n2)cc1Cl` is less than 0.01 µM?
Key: Satisfied

Exercise: Could you please tell me whether IC50 recorded for `COc1cc(OC)c(-c2cn3cc(NCCN)c(N4CCOCC4)c(F)c3n2)cc1Cl` is less than 0.01 µM?
Key: Not satisfied

Exercise: Could you please tell me whether IC50 recorded for COc1cc(OC)c(-c2cn3ccc(N4CCC(NS(=O)(=O)C5CC5)C4)cc3n2)cc1Cl (centres unmarked) is less than 0.01 µM?
Key: Satisfied

Exercise: Could you please tell me whether IC50 recorded for `COc1cc(OCCN)c(-c2cn3ccc(N4CCN(S(=O)(=O)C5CC5)CC4)cc3n2)cc1Cl` is less than 0.01 µM?
Key: Not satisfied

Exercise: Could you please tell me whether IC50 recorded for `COc1cc(OCCCN(C)C)c(-c2cn3ccc(N4CCN(C(=O)OC(C)(C)C)CC4)cc3n2)cc1Cl` is less than 0.01 µM?
Key: Not satisfied

Exercise: Could you please tell me whether IC50 recorded for `CC[C@@H](C)[C@H](NC(=O)OC(C)(C)C)C(=O)Nc1ccn2cc(-c3cc(Cl)c(OC)cc3OC)nc2c1` is less than 0.01 µM?
Key: Not satisfied

Exercise: Could you please tell me whether IC50 recorded for COc1cc(OC)c(-c2cn3ccc(N4CCC(O)C4)cc3n2)cc1Br (centres unmarked) is less than 0.01 µM?
Key: Satisfied

Exercise: Could you please tell me whether IC50 recorded for `COc1cc(OC)c(-c2cn3ccc(N4CCN(S(C)(=O)=O)CC4)nc3n2)cc1Cl` is less than 0.01 µM?
Key: Not satisfied

Exercise: Could you please tell me whether IC50 recorded for `COc1cc(OC)c(-c2cn3ccc(N4CCN(S(=O)(=O)C5CC5)CC4)nc3n2)cc1Cl` is less than 0.01 µM?
Key: Not satisfied

Exercise: Could you please tell me whether IC50 recorded for `COCCCN1CC=C(c2ccn3cc(-c4cc(Cl)c(OC)cc4OC)nc3c2)CC1` is less than 0.01 µM?
Key: Not satisfied

Exercise: Could you please tell me whether IC50 recorded for `COc1cc(OC)c(-c2cn3ccc(N4CCCN(P(=O)(OC)OC)CC4)cc3n2)cc1Cl` is less than 0.01 µM?
Key: Not satisfied

Exercise: Could you please tell me whether IC50 recorded for `COc1cc(OC)c(-c2cn3ccc(NC(=O)[C@H](C)NC(=O)OC(C)(C)C)cc3n2)cc1Cl` is less than 0.01 µM?
Key: Not satisfied

Exercise: Could you please tell me whether IC50 recorded for `COc1cc(OC)c(-c2cn3ccc(OC4CCN(S(=O)(=O)c5cccs5)CC4)cc3n2)cc1Cl` is less than 0.01 µM?
Key: Not satisfied

Exercise: Could you please tell me whether IC50 recorded for `COc1cc(OC)c(-c2cn3ccc(C4=CCN(CC#N)CC4)cc3n2)cc1Cl` is less than 0.01 µM?
Key: Not satisfied

Exercise: Could you please tell me whether IC50 recorded for `COc1cc(OC)c(-c2cn3ccc(N4CCC(NC(=O)OC(C)(C)C)CC4)cc3n2)cc1Cl` is less than 0.01 µM?
Key: Not satisfied

Exercise: Could you please tell me whether IC50 recorded for `COc1cc(OC)c(-c2cn3ccc(N4CCC(NS(=O)(=O)N(C)C)CC4)cc3n2)cc1Cl` is less than 0.01 µM?
Key: Not satisfied
